Test: Pharmacokinetics in vivo after single oral or intravenous administration
Design: species or system rat
Settings: male, Wistar, rat, plasma, iv, 10 mg/kg, rats, i.v. injection, Mean ± SD (n = 3), read-out: t1/2 (converted)
QUANTITY: half-life
Record the result as a number with its unit.

Please report the recorded half-life for O=S1(=O)COc2cc(-c3ccc(OCC4CCN(c5ncc(Cl)cn5)CC4)c(F)c3)ccc21 [ZB-16] .
15 h

* * *

pIC50: −log10 of the molar value.
Parameter 'readout' = pIC50; parameter 'system' = CYP3A4 (Homo sapiens).
Sequence (P08684 whole entry): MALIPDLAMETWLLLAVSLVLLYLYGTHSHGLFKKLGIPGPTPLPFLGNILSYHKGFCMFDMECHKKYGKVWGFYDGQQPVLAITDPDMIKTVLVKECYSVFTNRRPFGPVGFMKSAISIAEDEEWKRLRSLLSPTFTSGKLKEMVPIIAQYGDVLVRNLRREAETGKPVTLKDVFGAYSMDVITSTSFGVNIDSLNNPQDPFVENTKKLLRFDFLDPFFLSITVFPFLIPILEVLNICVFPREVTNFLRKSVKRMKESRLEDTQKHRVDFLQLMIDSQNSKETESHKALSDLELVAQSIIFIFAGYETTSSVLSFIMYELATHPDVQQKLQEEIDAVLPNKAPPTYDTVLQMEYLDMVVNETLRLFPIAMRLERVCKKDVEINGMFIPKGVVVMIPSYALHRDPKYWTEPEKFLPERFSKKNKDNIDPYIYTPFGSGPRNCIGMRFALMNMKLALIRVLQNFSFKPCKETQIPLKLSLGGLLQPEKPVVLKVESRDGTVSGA

>>> result("O=S1(=O)COc2cc(-c3ccc(OCC4CCN(c5ncc(Cl)cn5)CC4)c(F)c3)ccc21")
"< 5.00"

--- query ---
Please report the recorded pIC50 for O=S1(=O)COc2cc(-c3ccc(OCC4CCN(c5ncc(Cl)cn5)CC4)nc3)ccc21 .
< 5.00
